- protocolDescription: Compound A pharmacokinetics after oral administration of a single dose with and without ritonavir, human subjects, fed
- Format: in vivo
- conditionsUsed: plasma, po, 800 mg, single oral dose 800 mg, without ritonavir, geometric mean, read-out: AUC (area under the concentration-time curve from time 0 to infinity)
- Description: Nos. 11/008325, filed Dec. 8, 2004, and 60/591,351, filed Jul. 26, 2004, all of which are hereby incorporated by reference for this purpose. […] The mean to t1/2 value for the 100 mg dose group was calculated from three subjects. […]
recordedEndpoint: AUC (ng·h/mL)
Dear colleague, please return just the value in ng·h/mL, with no unit written.

stdin: Query (compound): C=CCNC(=O)[C@H]1N(C(=O)[C@@H](O)[C@H](Cc2ccccc2)NC(=O)c2cccc(O)c2C)CSC1(C)C [Compound A] ; field requested: AUC
stdout: 15800
